experiment: metabolic stability in cryopreserved rat hepatocytes; settings: Sprague Dawley, rat, hepatocytes
outcome_measure: half-life at 0.2 μM (min)
The reply should contain only the number, in min.

Task: Would you mind telling me what half-life at 0.2 μM value was observed for Cc1ncc2n1-c1ccc(Cl)cc1C(c1ccccc1F)=NC2 [Midazolam, reference compound] ?
Output: 21.9

###

molecular target: A1 adenosine receptor (Homo sapiens, UniProt P30542); test: cyclic AMP HTRF functional assay, CHO-K1 (A1); conditions: CHO-K1 cells; read-out: IC50, A1 functional antagonism (c-AMP)
Sequence (P30542 whole entry): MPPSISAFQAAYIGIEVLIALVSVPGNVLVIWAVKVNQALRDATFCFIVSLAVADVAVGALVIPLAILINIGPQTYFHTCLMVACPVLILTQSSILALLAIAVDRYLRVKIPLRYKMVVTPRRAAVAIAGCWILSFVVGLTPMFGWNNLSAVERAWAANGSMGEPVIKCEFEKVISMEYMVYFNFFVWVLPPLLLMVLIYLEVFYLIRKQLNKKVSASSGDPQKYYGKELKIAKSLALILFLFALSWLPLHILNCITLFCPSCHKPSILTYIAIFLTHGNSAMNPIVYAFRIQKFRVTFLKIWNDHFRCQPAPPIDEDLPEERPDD
outcome_measure: pIC50
Units for pIC50: none; it is -log10 of a concentration expressed in mol/L.

Task: What pIC50 value was documented for this compound, Cc1cc(Cn2ncc3c(-c4cccc(C#N)c4F)nc(N)nc32)ccc1N [11o] ?
Output: 7.01
